// data source = patent US7074789B2

targetSystem: IGFR-1 (Homo sapiens, UniProt P08069)
Construct: Kinases are expressed as either kinase domains or full length constructs; made in house
Sequence (P08069 31-1367): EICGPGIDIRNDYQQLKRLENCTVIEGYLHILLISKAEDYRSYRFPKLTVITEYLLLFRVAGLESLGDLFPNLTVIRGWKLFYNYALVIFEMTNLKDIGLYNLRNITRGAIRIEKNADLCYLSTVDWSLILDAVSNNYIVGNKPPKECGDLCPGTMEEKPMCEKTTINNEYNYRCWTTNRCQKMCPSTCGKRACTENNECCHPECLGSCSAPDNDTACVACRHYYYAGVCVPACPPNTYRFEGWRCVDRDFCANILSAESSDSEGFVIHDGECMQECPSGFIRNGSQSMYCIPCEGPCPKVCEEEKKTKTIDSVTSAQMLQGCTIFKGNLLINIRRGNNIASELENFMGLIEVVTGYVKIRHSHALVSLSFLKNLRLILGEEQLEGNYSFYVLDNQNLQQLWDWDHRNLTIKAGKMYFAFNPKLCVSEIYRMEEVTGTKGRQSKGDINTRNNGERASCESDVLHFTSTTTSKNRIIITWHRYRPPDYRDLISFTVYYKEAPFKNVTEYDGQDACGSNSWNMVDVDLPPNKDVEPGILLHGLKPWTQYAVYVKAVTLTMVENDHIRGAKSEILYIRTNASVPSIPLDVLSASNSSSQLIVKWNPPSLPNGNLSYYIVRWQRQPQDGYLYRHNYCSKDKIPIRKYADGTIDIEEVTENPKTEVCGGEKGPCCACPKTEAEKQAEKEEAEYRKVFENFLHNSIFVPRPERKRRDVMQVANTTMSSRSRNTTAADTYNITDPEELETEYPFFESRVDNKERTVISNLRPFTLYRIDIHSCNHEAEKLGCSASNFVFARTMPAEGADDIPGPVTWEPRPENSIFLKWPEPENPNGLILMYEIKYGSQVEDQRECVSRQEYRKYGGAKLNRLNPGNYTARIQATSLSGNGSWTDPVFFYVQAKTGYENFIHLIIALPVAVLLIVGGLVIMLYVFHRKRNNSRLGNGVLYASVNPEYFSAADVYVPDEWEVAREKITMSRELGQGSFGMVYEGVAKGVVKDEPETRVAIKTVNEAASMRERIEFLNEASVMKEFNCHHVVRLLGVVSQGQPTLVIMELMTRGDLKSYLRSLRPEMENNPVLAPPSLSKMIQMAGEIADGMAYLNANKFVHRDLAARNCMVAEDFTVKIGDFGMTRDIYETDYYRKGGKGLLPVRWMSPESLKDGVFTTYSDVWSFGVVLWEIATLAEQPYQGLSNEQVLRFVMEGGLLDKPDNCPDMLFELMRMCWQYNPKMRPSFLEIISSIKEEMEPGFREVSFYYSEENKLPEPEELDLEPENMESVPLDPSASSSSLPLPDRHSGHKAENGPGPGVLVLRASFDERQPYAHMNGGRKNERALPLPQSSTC
assayProtocol: Kinase inhibition assay (33P transfer), IGFR-1
Type: biochemical
experimentalContext: Table 2, kinase inhibition class
pIC50: −log10 of the molar value.
measureName: pIC50

Worked cases, pIC50 given:
# compound, pIC50
records = [
    ("COc1cc(Nc2ncnc(N3CCCC4CCCCC43)n2)cc(OC)c1OC (stereo not drawn) [Compound 314]", "< 4.95"),
    ("COc1cc(Nc2ncnc(Nc3ccc4c(ccn4Cc4ccccc4)c3)n2)cc(OC)c1OC [Compound 178]", "5.30 to 6.08"),
]

## Task Item under review: COc1cc(Nc2ncnc(-c3ccsc3)n2)cc(OC)c1OC [Compound 226] . Reported pIC50?
## Result < 4.88

## Task And COc1cc(Nc2ncnc(Nc3ccc(Br)cc3F)n2)cc(OC)c1OC [Compound 41] ?
## Result 5.27 to 6.05

## Task Now consider FC(F)C(F)(F)Oc1cccc(Nc2ncnc(-c3cccs3)n2)c1 [Compound 350] .
## Result < 4.92

## Task Here is the next compound: COc1cc(Nc2ncnc(N3CCc4ccccc4C3)n2)cc(OC)c1OC [Compound 326]
## Result < 4.94

* * *

Listing: IC50 of selected compounds
targetSystem: EGFR (Homo sapiens, UniProt P00533)
Construct: Kinases are expressed as either kinase domains or full length constructs; made in house
Sequence (P00533 25-1210, species assumed): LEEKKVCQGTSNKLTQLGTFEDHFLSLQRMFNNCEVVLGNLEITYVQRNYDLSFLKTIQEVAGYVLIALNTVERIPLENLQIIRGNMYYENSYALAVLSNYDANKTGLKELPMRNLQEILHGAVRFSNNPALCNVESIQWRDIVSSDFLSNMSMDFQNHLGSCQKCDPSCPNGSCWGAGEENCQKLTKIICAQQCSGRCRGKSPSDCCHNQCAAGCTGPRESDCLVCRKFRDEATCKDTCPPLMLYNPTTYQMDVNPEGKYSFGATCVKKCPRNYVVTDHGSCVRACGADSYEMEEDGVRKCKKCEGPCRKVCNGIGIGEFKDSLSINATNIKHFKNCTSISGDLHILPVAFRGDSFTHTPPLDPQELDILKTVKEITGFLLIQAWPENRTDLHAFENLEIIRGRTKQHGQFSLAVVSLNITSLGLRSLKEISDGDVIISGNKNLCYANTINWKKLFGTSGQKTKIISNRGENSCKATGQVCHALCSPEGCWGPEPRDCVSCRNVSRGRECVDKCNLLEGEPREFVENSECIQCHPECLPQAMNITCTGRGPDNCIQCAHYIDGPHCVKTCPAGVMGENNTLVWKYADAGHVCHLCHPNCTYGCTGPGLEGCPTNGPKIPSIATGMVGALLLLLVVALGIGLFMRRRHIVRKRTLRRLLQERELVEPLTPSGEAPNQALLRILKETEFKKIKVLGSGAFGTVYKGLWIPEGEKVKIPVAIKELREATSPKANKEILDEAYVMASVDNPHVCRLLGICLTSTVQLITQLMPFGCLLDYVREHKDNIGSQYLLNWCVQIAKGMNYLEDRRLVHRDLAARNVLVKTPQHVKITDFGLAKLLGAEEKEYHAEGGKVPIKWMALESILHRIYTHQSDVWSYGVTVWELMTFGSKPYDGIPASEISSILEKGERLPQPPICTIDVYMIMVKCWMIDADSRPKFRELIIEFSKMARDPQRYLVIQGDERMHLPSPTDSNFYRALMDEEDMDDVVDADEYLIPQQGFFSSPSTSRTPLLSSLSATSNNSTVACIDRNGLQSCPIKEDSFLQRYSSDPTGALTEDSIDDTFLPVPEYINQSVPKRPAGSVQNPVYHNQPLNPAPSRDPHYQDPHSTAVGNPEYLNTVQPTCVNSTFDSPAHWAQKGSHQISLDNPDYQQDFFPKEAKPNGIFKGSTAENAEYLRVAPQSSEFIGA
assayProtocol: Kinase inhibition assay (33P transfer), EGFR
Format: biochemical
experimentalContext: Table 2, class symbols A-E; read-out: EGFR-1

Please review the entries below; each comes with its answer.
# substanceSmiles, targetSystem, measureName, result
rows = [
    ("COc1ccc(CNc2ncnc(Nc3cc(-c4ccco4)[nH]n3)n2)cc1OC", "EGFR (Homo sapiens, UniProt P00533)", "IC50", "1.02 to 6.1 µM"),
    ("COc1cc(Nc2ncnc(-c3cccnc3Nc3cccc(C#N)c3)n2)cc(OC)c1OC", "EGFR (Homo sapiens, UniProt P00533)", "IC50", "> 9.88 µM"),
    ("CC(C)Nc1ncccc1-c1ncnc(Nc2ccc(N3CCOCC3)cc2)n1", "EGFR (Homo sapiens, UniProt P00533)", "IC50", "1.02 to 6.13 µM"),
]

Continue with the compound presented below.
## Task // IC50 lookup, key: COc1cc(Nc2ncnc(Nc3cc(Cl)c(NC(=O)c4ccccc4)cc3C)n2)cc(OC)c1OC
## Result 0.768 to 4.61 µM

* * *

targetSystem: Lck (Homo sapiens)
Construct: Kinases are expressed as either kinase domains or full length constructs; made in house
Sequence (P06239 whole entry, species assumed, the tested form may be a part): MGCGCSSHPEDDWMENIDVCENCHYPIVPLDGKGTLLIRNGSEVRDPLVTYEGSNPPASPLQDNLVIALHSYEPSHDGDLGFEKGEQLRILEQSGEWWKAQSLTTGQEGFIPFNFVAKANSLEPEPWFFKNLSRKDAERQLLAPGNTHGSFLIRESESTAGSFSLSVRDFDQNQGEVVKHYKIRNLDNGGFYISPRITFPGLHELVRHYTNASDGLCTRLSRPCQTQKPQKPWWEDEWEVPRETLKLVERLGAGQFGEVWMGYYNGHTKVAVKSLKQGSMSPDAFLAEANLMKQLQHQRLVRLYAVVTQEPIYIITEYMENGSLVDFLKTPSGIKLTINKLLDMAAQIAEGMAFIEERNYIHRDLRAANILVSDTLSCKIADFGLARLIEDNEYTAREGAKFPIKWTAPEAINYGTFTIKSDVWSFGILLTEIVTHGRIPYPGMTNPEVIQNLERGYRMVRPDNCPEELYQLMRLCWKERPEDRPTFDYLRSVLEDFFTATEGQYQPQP
assayProtocol: Kinase inhibition assay (33P transfer), Lck
Type: biochemical
experimentalContext: read-out: Lck-1
measureName: IC50

## Task Tell me reported IC50 for CCN(CC)CCOc1cc(Nc2ncnc(Nc3cc(OC)c(OC)c(OC)c3)n2)ccc1OC , tested with Lck (Homo sapiens).
## Result < 0.802 µM

## Task # repeat for O=c1[nH]c2ccccc2n1-c1ncnc(Nc2ccc(O)cc2)n1
## Result 7.49 to 10.9 µM

## Task One more molecule: CN(c1ccccc1)c1ncnc(-n2c(N)nc3ccccc32)n1
## Result 7.56 to 11 µM

## Task And the next one, Cc1cccc(Nc2ncnc(Nc3cc(-c4ccccc4)n[nH]3)n2)c1 ?
## Result 1.16 to 6.99 µM

## Task Also COc1cc(Nc2ncnc(N[C@@H]3CCCc4ccccc43)n2)cc(OC)c1OC , if possible.
## Result 0.982 to 5.89 µM
